- Assay System: mPAD4 (Mus musculus)
- Sequence (Q9Z183 whole entry): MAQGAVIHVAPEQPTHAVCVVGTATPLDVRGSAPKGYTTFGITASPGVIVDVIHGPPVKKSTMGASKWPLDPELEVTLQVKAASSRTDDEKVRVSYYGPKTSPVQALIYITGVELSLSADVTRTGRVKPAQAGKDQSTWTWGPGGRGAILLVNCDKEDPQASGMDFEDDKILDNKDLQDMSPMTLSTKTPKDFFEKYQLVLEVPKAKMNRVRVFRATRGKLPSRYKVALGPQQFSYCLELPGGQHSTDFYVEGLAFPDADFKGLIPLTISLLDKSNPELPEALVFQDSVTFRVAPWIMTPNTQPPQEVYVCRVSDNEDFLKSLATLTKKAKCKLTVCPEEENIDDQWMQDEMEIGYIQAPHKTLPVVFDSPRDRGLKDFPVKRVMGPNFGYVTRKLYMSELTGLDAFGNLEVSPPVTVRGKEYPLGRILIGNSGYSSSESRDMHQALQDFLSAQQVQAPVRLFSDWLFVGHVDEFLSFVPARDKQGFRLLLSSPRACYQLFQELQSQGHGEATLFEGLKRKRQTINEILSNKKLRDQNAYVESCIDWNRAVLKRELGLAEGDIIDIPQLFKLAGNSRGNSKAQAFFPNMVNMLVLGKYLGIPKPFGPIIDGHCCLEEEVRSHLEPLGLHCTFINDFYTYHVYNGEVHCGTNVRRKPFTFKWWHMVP
- Assay Protocol: mPAD4 RFMS PAD4 inhibition assay;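 note: grade E means pIC50 at most 4 and F means pIC50 4.0 to 5.0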
- Format: biochemical
- Assay Conditions: mPAD4, RFMS readout; pIC50=−log(IC50); read-out: mPAD4 RFMS pIC50 (converted)
Property Name: IC50

Input line: Quick check: IC50 of "Cn1c(-c2cc3cccnc3n2CC2CC2)nc2cc(C(=O)N3C[C@@H](N)C[C@H](F)C3)ccc21" ?
Output line: 1 to 10 µM

Input line: # input compound: "COc1cc(C(=O)N2CC[C@]3(CNCCC3(F)F)C2)cc2nc(-c3cc4cccnc4n3CC3CC3)n(C)c12" ; wanted: its IC50
Output line: 10 to 100 µM

Input line: I would be grateful if you could share the reported IC50 for COc1cc(C(=O)N2CC3CCC2[C@@H]3N)cc2nc(-c3cc4cccnc4n3CC3CC3)n(C)c12 (stereo partly drawn) .
Output line: 10 to 100 µM

Input line: State the recorded IC50 for this entry: COc1cc(C(=O)N2CCC(F)C(N)C2)cc2nc(-c3cc4cccnc4n3CC3CC3)n(C)c12 (racemic) [Compound I-75]
Output line: 1 to 10 µM

Input line: Which IC50 is reported for this compound? "CO[C@H]1CCN(C(=O)c2cc(OC(F)F)c3c(c2)nc(-c2cc4cccnc4n2CC2CC2)n3C)C[C@H]1N"
Output line: < 1 µM

Input line: Dear colleague, I am looking for the recorded IC50 of the following compound: "CCn1c(-c2nc3cc(C(=O)N4CCC[C@@H](N)C4)cc(F)c3n2CC)cc2cccnc21"
Output line: 1 to 10 µM

Input line: Endpoint output: IC50 of "Cn1c(-c2cc3cccnc3n2CC2CC2)nc2cc(C(=O)N3C[C@H](N)C[C@@H](F)C3)cc(OC(F)F)c21" . Value?
Output line: < 1 µM

Input line: For the compound shown here, COc1cc(C(=O)N2C[C@H](N)CC[C@@H]2CO)cc2nc(-c3cc4cccnc4n3CC3CC3)n(C)c12 (single isomer, unassigned) [Compound I-228] , give the reported IC50.
Output line: 1 to 10 µM

Input line: For "COCCn1c(-c2cc3cccnc3n2CC2CC2)nc2cc(C(=O)N3C[C@H]4CC[C@@H]3[C@@H]4N)cc(OC)c21" , what is its reported IC50?
Output line: < 1 µM
